# Tested on: LOU-NH91
# MEASUREMENT NOTES: relative viability (nuclei count vs DMSO), 5 days (fraction); higher = more cells survive
# APPLIED CONDITIONS: first compound 2.53 µM
OBSERVABLE: relative viability
# answer = number (no unit)

O=c1[nH]c2ccccc2n1C1CCN(CCCC(c2ccc(F)cc2)c2ccc(F)cc2)CC1 [Pimozide] + C[C@@H](Oc1cc(-c2cnn(C3CCNCC3)c2)cnc1N)c1c(Cl)ccc(F)c1Cl [Crizotinib] (partner 1 µM)
0.759
Cc1cnc(-c2cnc(NCCNc3ccc(C#N)cn3)nc2-c2ccc(Cl)cc2Cl)[nH]1 + N=C(N)NC(=N)NCCc1ccccc1 [Phenformin] (partner 250 µM)
0.567
Cc1cnc(-c2cnc(NCCNc3ccc(C#N)cn3)nc2-c2ccc(Cl)cc2Cl)[nH]1 + C[C@@H](Oc1cc(-c2cnn(C3CCNCC3)c2)cnc1N)c1c(Cl)ccc(F)c1Cl [Crizotinib] (partner 1 µM)
0.782
O=c1[nH]c2ccccc2n1C1CCN(CCCC(c2ccc(F)cc2)c2ccc(F)cc2)CC1 [Pimozide] + Nc1nc2[nH]cc(CCc3ccc(C(=O)N[C@@H](CCC(=O)O)C(=O)O)cc3)c2c(=O)[nH]1 [Pemetrexed] (partner 0.2 µM)
0.384

Next:
Asked: So what's the measured relative viability for this one? Cc1cnc(-c2cnc(NCCNc3ccc(C#N)cn3)nc2-c2ccc(Cl)cc2Cl)[nH]1 + COc1cccc2cc(-c3nc([C@H]4CC[C@H](C(=O)O)CC4)n4ncnc(N)c34)[nH]c12 [OSI-027] (partner 0.5 µM)
Given back: 0.673

----------
# Tested on: NCI-H2347
# MEASUREMENT NOTES: relative viability (nuclei count vs DMSO), 5 days (fraction); higher = more cells survive
# APPLIED CONDITIONS: first compound 5 µM
OBSERVABLE: relative viability

Asked: So what's the measured relative viability for this one? O=C(O)CCCCC(CCSCc1ccccc1)SCc1ccccc1 (stereo not drawn) [CPI-613] + NC(=O)Nc1cc(-c2cccc(F)c2)sc1C(=O)N[C@H]1CCCNC1 [AZD7762] (partner 0.2 µM)
Given back: 0.735

Asked: So what's the measured relative viability for this one? O=C(O)CCCCC(CCSCc1ccccc1)SCc1ccccc1 (stereo not drawn) [CPI-613] + CS(=O)(=O)N1CCN(Cc2cc3nc(-c4cccc5[nH]ncc45)nc(N4CCOCC4)c3s2)CC1 [Pictilisib] (partner 1 µM)
Given back: 0.524

Asked: So what's the measured relative viability for this one? O=C(O)CCCCC(CCSCc1ccccc1)SCc1ccccc1 (stereo not drawn) [CPI-613] + Cc1nc(NC(=O)N2CCC[C@H]2C(N)=O)sc1-c1ccnc(C(C)(C)C(F)(F)F)c1 [Alpelisib] (partner 2 µM)
Given back: 1.02

----------
# Tested on: NCI-H2085
# MEASUREMENT NOTES: relative viability (nuclei count vs DMSO), 5 days (fraction); higher = more cells survive
# APPLIED CONDITIONS: first compound 0.253 µM
Listed molecules paired with reported relative viability
# answer = number (no unit)

Asked: So what's the measured relative viability for this one? Cc1cnc(-c2cnc(NCCNc3ccc(C#N)cn3)nc2-c2ccc(Cl)cc2Cl)[nH]1 + CS(=O)(=O)CCNCc1ccc(-c2ccc3ncnc(Nc4ccc(OCc5cccc(F)c5)c(Cl)c4)c3c2)o1 [Lapatinib] (partner 2 µM)
Given back: 0.8

Asked: So what's the measured relative viability for this one? O=c1[nH]c2ccccc2n1C1CCN(CCCC(c2ccc(F)cc2)c2ccc(F)cc2)CC1 [Pimozide] + C[C@@H](Oc1cc(-c2cnn(C3CCNCC3)c2)cnc1N)c1c(Cl)ccc(F)c1Cl [Crizotinib] (partner 1 µM)
Given back: 0.792

Asked: So what's the measured relative viability for this one? Cc1cnc(-c2cnc(NCCNc3ccc(C#N)cn3)nc2-c2ccc(Cl)cc2Cl)[nH]1 + CC(=O)c1c(C)c2cnc(Nc3ccc(N4CCNCC4)cn3)nc2n(C2CCCC2)c1=O [Palbociclib] (partner 0.5 µM)
Given back: 0.509

Asked: So what's the measured relative viability for this one? O=c1[nH]c2ccccc2n1C1CCN(CCCC(c2ccc(F)cc2)c2ccc(F)cc2)CC1 [Pimozide] + O=C(c1cc(Cc2n[nH]c(=O)c3ccccc23)ccc1F)N1CCN(C(=O)C2CC2)CC1 [Olaparib] (partner 8 µM)
Given back: 0.82

----------
Listed compounds paired with reported relative viability
# System: EMC-BAC-2
# MEASUREMENT NOTES: relative viability (nuclei count vs DMSO), 5 days (fraction); higher = more cells survive
# APPLIED CONDITIONS: first compound 0.253 µM
# answer = number (no unit)

Cc1cnc(-c2cnc(NCCNc3ccc(C#N)cn3)nc2-c2ccc(Cl)cc2Cl)[nH]1 + C[C@]1(O)C[C@@H](c2nc(-c3ccc4ccc(-c5ccccc5)nc4c3)c3c(N)nccn32)C1 [Linsitinib] (partner 1 µM)
0.792
O=c1[nH]c2ccccc2n1C1CCN(CCCC(c2ccc(F)cc2)c2ccc(F)cc2)CC1 [Pimozide] + C[C@@H](Oc1cc(-c2cnn(C3CCNCC3)c2)cnc1N)c1c(Cl)ccc(F)c1Cl [Crizotinib] (partner 1 µM)
0.79

Asked: So what's the measured relative viability for this one? O=c1[nH]c2ccccc2n1C1CCN(CCCC(c2ccc(F)cc2)c2ccc(F)cc2)CC1 [Pimozide] + CS(=O)(=O)CCNCc1ccc(-c2ccc3ncnc(Nc4ccc(OCc5cccc(F)c5)c(Cl)c4)c3c2)o1 [Lapatinib] (partner 2 µM)
Given back: 0.832

----------
Listed molecules paired with reported relative viability
# Test system: NCI-H1666
# MEASUREMENT NOTES: relative viability (nuclei count vs DMSO), 5 days (fraction); higher = more cells survive
# APPLIED CONDITIONS: first compound 0.01581 µM
# answer = number (no unit)

COc1cc2nccc(Oc3ccc(NC(=O)Nc4cc(C)on4)c(Cl)c3)c2cc1OC [Tivozanib] + NC(=O)Nc1cc(-c2cccc(F)c2)sc1C(=O)N[C@H]1CCCNC1 [AZD7762] (partner 0.2 µM)
0.761
COc1cc2nccc(Oc3ccc(NC(=O)Nc4cc(C)on4)c(Cl)c3)c2cc1OC [Tivozanib] + Nc1ncn([C@H]2C[C@H](O)[C@@H](CO)O2)c(=O)n1 [Decitabine] (partner 2 µM)
0.683

Next:
Asked: So what's the measured relative viability for this one? Nc1ccn([C@@H]2O[C@H](CO)[C@@H](O)[C@@H]2O)c(=O)n1 [Cytarabine] + Nc1nc2[nH]cc(CCc3ccc(C(=O)N[C@@H](CCC(=O)O)C(=O)O)cc3)c2c(=O)[nH]1 [Pemetrexed] (partner 0.2 µM)
Given back: 0.718

----------
Listed compounds paired with reported relative viability
# Tested on: A-427
# MEASUREMENT NOTES: relative viability (nuclei count vs DMSO), 5 days (fraction); higher = more cells survive
# APPLIED CONDITIONS: first compound 15.81 µM
# answer = number (no unit)

O=C(O)CCCCC(CCSCc1ccccc1)SCc1ccccc1 (stereo not drawn) [CPI-613] + CC(=O)Nc1cccc(-n2c(=O)n(C3CC3)c(=O)c3c(Nc4ccc(I)cc4F)n(C)c(=O)c(C)c32)c1 [Trametinib] (partner 0.02 µM)
0.766

Asked: So what's the measured relative viability for this one? O=C(O)CCCCC(CCSCc1ccccc1)SCc1ccccc1 (stereo not drawn) [CPI-613] + NC(=O)Nc1cc(-c2cccc(F)c2)sc1C(=O)N[C@H]1CCCNC1 [AZD7762] (partner 0.2 µM)
Given back: 0.642

Asked: So what's the measured relative viability for this one? O=C(O)CCCCC(CCSCc1ccccc1)SCc1ccccc1 (stereo not drawn) [CPI-613] + CS(=O)(=O)CCNCc1ccc(-c2ccc3ncnc(Nc4ccc(OCc5cccc(F)c5)c(Cl)c4)c3c2)o1 [Lapatinib] (partner 2 µM)
Given back: 0.94

----------
# Test system: NCI-H2170
# MEASUREMENT NOTES: relative viability (nuclei count vs DMSO), 5 days (fraction); higher = more cells survive
# APPLIED CONDITIONS: first compound 0.5 µM
OBSERVABLE: relative viability
# answer = number (no unit)

Would you please look over these solved cases?
COc1cc2nccc(Oc3ccc(NC(=O)Nc4cc(C)on4)c(Cl)c3)c2cc1OC [Tivozanib] + CC(=O)Nc1cccc(-n2c(=O)n(C3CC3)c(=O)c3c(Nc4ccc(I)cc4F)n(C)c(=O)c(C)c32)c1 [Trametinib] (partner 0.02 µM)
0.983
COc1cc2nccc(Oc3ccc(NC(=O)Nc4cc(C)on4)c(Cl)c3)c2cc1OC [Tivozanib] + N=C(N)NC(=N)NCCc1ccccc1 [Phenformin] (partner 250 µM)
0.421
COc1cc2nccc(Oc3ccc(NC(=O)Nc4cc(C)on4)c(Cl)c3)c2cc1OC [Tivozanib] + CC1(C)CCC(c2ccc(Cl)cc2)=C(CN2CCN(c3ccc(C(=O)NS(=O)(=O)c4ccc(N[C@H](CCN5CCOCC5)CSc5ccccc5)c(S(=O)(=O)C(F)(F)F)c4)cc3)CC2)C1 [Navitoclax] (partner 0.5 µM)
0.584
COc1cc2nccc(Oc3ccc(NC(=O)Nc4cc(C)on4)c(Cl)c3)c2cc1OC [Tivozanib] + Cc1nc(Nc2ncc(C(=O)Nc3c(C)cccc3Cl)s2)cc(N2CCN(CCO)CC2)n1 [Dasatinib] (partner 0.075 µM)
0.569
Nc1ccn([C@@H]2O[C@H](CO)[C@@H](O)[C@@H]2O)c(=O)n1 [Cytarabine] + Nc1nc2[nH]cc(CCc3ccc(C(=O)N[C@@H](CCC(=O)O)C(=O)O)cc3)c2c(=O)[nH]1 [Pemetrexed] (partner 0.2 µM)
0.183
COc1cc2nccc(Oc3ccc(NC(=O)Nc4cc(C)on4)c(Cl)c3)c2cc1OC [Tivozanib] + CS(=O)(=O)N1CCN(Cc2cc3nc(-c4cccc5[nH]ncc45)nc(N4CCOCC4)c3s2)CC1 [Pictilisib] (partner 1 µM)
0.335

Next:
Asked: So what's the measured relative viability for this one? Nc1ccn([C@@H]2O[C@H](CO)[C@@H](O)[C@@H]2O)c(=O)n1 [Cytarabine] + CS(=O)(=O)N1CCN(Cc2cc3nc(-c4cccc5[nH]ncc45)nc(N4CCOCC4)c3s2)CC1 [Pictilisib] (partner 1 µM)
Given back: 0.192
